Each recorded value in this set is attributed to PubChem BioAssay (NCI).

System: PC-3 prostate
PROTOCOL_SUMMARY: NCI tumour cell line growth inhibition, 48 h
MEASUREMENT_TYPE: GI50

MOLECULE | GI50
O=C1NC(=O)/C(=C/c2c(Cl)nc3sccn23)S1 | > 87.7 µM
C=C1c2c(C)nn(-c3ccc(OC)cc3)c2N(C)C23C[C@@H]1C1(C)c4c(C)nn(-c5ccc(OC)cc5)c4N(C)C(C)(C[C@H]12)C3 (stereo partly drawn) | 1.75 µM
O=C1C(Cl)=C(Nc2cccc(O)c2)C(=O)N1CCc1ccccc1 | 22.3 µM
CC1OC(OC2C(O)C(OCCc3ccc(O)c(O)c3)OC(CO)C2OC(=O)/C=C/c2ccc(O)c(O)c2)C(O)C(O)C1OC1OCC(O)(CO)C1O (stereo not drawn) | 0.85 µM
O=C(NC(=S)Nc1ccccn1)c1ccccc1 | > 100 µM

Query: Give the measured GI50 of `O=C1c2ccccc2C(=O)c2c1c(=O)c(=O)c1ccccc1c(=O)n2Cc1ccccc1` .
Reply: > 100 µM

Query: Also need `O=C(Nc1ccc(-n2cc(-c3ccncc3)c(-c3ccc(O)c(Cl)c3)n2)cc1)c1cc(C(F)(F)F)cc(C(F)(F)F)c1` , thanks.
Reply: 5.02 µM

Query: Also need COC(=O)C1=C(OC(=O)c2ccccc2)C(C(=O)OC)[C@]2(O)[C@@H](C(=O)OC)C1CC(c1ccccc1OC)[C@@H]2C(=O)OC (stereo partly drawn) , thanks.
Reply: 9.08 µM
